The origin of these recorded values is ChEMBL document CHEMBL1157707.

Test: Solubility at pH 3
Format: physicochemical
Conditions: buffer
Reported values of solubility for individual entries

structureNotation	solubility
CCn1nnc2c(N3CCOCC3)nc(-c3ccc(NC(=O)Nc4ccc(C(=O)N5CCN(C)CC5)cc4)cc3)nc21	100 µg/mL
CCn1nnc2c(N3CCOCC3)nc(-c3ccc(NC(=O)Nc4ccc(C(=O)NCCN(C)C)cc4)cc3)nc21	> 100 µg/mL
CCn1nnc2c(N3CCOCC3)nc(-c3ccc(NC(=O)Nc4ccc(C(=O)NCCCN(C)C)cc4)cc3)nc21	100 µg/mL
CCn1nnc2c(N3CCOCC3)nc(-c3ccc(NC(=O)Nc4ccc(C(=O)NCCc5ccccn5)cc4)cc3)nc21	4 µg/mL

Shift focus to the following entry.
input: Record request: solubility value, item CCn1nnc2c(N3CCOCC3)nc(-c3ccc(NC(=O)Nc4ccc(C(=O)NCCN5CCN(C)CC5)cc4)cc3)nc21
output: 100 µg/mL
